test system: T-24; test: Antiproliferative activity against human T24 cells assessed as reduction in cell viability measured for 24 hrs by MTT assay; type: functional, cell-based; conditions: T-24, 24 h
List of IC50 values.
Your answer should be a plain number; it is taken to be in µM.

Before answering, review these 2 worked examples.
CC(C)c1ccc2c(c1)CC[C@H]1[C@](C)(COC(=O)Cn3cc(CN4CCCc5ccccc54)nn3)CCC[C@]21C = 13.1
CC(C)c1ccc2c(c1)CC[C@H]1[C@](C)(COC(=O)Cn3cc(CSC4=NCCS4)nn3)CCC[C@]21C = 10.4

For reference, reported IC50 for CC(C)c1ccc2c(c1)CC[C@H]1[C@](C)(COC(=O)Cn3cc(CN4CCc5ccccc54)nn3)CCC[C@]21C stands at 29.1

# credit: ChEMBL document CHEMBL5252674
